For each entry below, report its Ratio Ki value.
Species on record: Homo sapiens
Assay: Selectivity for 5HT7 receptor over dopamine D2 receptor
Simply state the number, no unit and no words.

GET /value?item= CN(/C=N/c1ccc2c(c1)C(O)CC2)Cc1ccccc1 (stereo unspecified) &field=Ratio Ki returns 16

GET /value?item= COc1cc2c(cc1OC)CN(/C=N/c1ccc3c(c1)C(OC(C)=O)CC3)CC2 (stereo unspecified) &field=Ratio Ki returns 12

GET /value?item= COc1cc2c(cc1OC)CN(/C=N/c1ccc3c(c1)C(O)CCCC3)CC2 (stereo unspecified) &field=Ratio Ki returns 2.1

GET /value?item= COc1cccc(CC2NCCc3c2[nH]c2ccccc32)c1 (stereo unspecified) &field=Ratio Ki returns 62

GET /value?item= Oc1cccc(C2NCCc3c2[nH]c2ccccc32)c1 (stereo unspecified) &field=Ratio Ki returns 80

GET /value?item= COc1cc2c(cc1OC)CN(/C=N/c1ccc3c(c1)C(OC(C)=O)CCCC3)CC2 (stereo unspecified) &field=Ratio Ki returns 28

GET /value?item= COc1ccc2[nH]c3c(c2c1)CCNC3Cc1ccc2c(c1)OCO2 (stereo unspecified) &field=Ratio Ki returns 53

GET /value?item= c1ccc2c3c([nH]c2c1)C(Cc1ccc2c(c1)OCO2)NCC3 (stereo unspecified) &field=Ratio Ki returns 511

GET /value?item= COc1cccc(C2=NCCc3c2[nH]c2ccc(OC)cc32)c1 &field=Ratio Ki returns 7

GET /value?item= CCCCSC1CCc2ccc(/N=C/N3CCc4cc(OC)c(OC)cc4C3)cc21 (stereo unspecified) &field=Ratio Ki returns 0.09

====

Target: D(2) dopamine receptor (Homo sapiens, UniProt P14416)
Sequence (P14416 whole entry): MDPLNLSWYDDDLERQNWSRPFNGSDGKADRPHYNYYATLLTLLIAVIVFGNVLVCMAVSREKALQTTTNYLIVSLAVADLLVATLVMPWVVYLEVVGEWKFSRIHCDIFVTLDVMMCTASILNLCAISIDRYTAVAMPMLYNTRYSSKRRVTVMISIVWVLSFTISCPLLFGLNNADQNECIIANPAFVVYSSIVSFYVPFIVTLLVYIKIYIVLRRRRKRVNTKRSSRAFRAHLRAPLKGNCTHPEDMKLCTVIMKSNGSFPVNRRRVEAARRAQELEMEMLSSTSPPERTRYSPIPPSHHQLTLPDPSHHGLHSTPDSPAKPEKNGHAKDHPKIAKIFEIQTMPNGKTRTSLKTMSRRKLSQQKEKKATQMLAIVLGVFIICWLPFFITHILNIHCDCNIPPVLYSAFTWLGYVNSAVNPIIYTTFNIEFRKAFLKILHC
Test: Displacement of [3H]spiperone from dopamine D2 receptor
For each entry below, report its pKi value.
# pKi: negative log10 of molar concentration; output just the value

GET /value?item= COc1ccc2[nH]c3c(c2c1)CCNC3Cc1ccc2c(c1)OCO2 (stereo unspecified) &field=pKi returns 5.72

GET /value?item= COc1cccc(C2=NCCc3c2[nH]c2ccccc32)c1 &field=pKi returns 4.51

GET /value?item= COc1cccc(CC2NCCc3c2[nH]c2ccc(OC)cc32)c1 (stereo unspecified) &field=pKi returns 5.82

GET /value?item= COC(=O)N1CCc2ccc(/N=C/N3CCc4cc(OC)c(OC)cc4C3)cc21 &field=pKi returns 4.85

GET /value?item= CC(=O)OC1CCc2ccc(/N=C/N(C)Cc3ccccc3)cc21 (stereo unspecified) &field=pKi returns 5.80

GET /value?item= CCCCSC1CCc2ccc(/N=C/N3CCc4cc(OC)c(OC)cc4C3)cc21 (stereo unspecified) &field=pKi returns 5.51

GET /value?item= COc1cccc(C2=NCCc3c2[nH]c2ccc(OC)cc32)c1 &field=pKi returns 4.60

GET /value?item= CCCCSC1=CCc2ccc(/N=C/N3CCc4cc(OC)c(OC)cc4C3)cc21 &field=pKi returns 5.09

GET /value?item= COc1cc2c(cc1OC)CN(/C=N/c1ccc3c(c1)C(OC(C)=O)CC3)CC2 (stereo unspecified) &field=pKi returns 4.92

GET /value?item= COc1cc2c(cc1OC)CN(/C=N/c1ccc3c(c1)C(OC(C)=O)CCCC3)CC2 (stereo unspecified) &field=pKi returns 4.85

====

MEASURED QUANTITY: pKi
# pKi: negative log10 of molar concentration; output just the value

Summary line: COc1cc2c(cc1OC)CN(/C=N/c1ccc3c(c1)C(OC(C)=O)CC3)CC2 (configuration not stated) , 5-hydroxytryptamine receptor 7 (Homo sapiens, UniProt P34969), reported pKi = 6.00

Summary line: c1ccc(C2NCCc3c2[nH]c2ccccc32)cc1 (configuration not stated) , 5-hydroxytryptamine receptor 7 (Homo sapiens, UniProt P34969), reported pKi = 4.01

Summary line: CCCSc1ccccc1CC1NCCc2c1[nH]c1ccccc21 (configuration not stated) , 5-hydroxytryptamine receptor 7 (Homo sapiens, UniProt P34969), reported pKi = 7.70

Summary line: COc1cccc(C2NCCc3c2[nH]c2ccccc32)c1 (configuration not stated) , 5-hydroxytryptamine receptor 7 (Homo sapiens, UniProt P34969), reported pKi = 5.77

Summary line: CSc1ccccc1CC1NCCc2c1[nH]c1ccccc21 (configuration not stated) , 5-hydroxytryptamine receptor 7 (Homo sapiens, UniProt P34969), reported pKi = 7.46

Summary line: COc1cccc(C2=NCCc3c2[nH]c2ccc(OC)cc32)c1 , 5-hydroxytryptamine receptor 7 (Homo sapiens, UniProt P34969), reported pKi = 5.46

Summary line: COc1cc2c(cc1OC)CN(/C=N/c1ccc3c(c1)C(O)CCCC3)CC2 (configuration not stated) , 5-hydroxytryptamine receptor 7 (Homo sapiens, UniProt P34969), reported pKi = 6.10

Summary line: COc1cccc(CC2NCCc3c2[nH]c2ccc(OC)cc32)c1 (configuration not stated) , 5-hydroxytryptamine receptor 7 (Homo sapiens, UniProt P34969), reported pKi = 7.35

Summary line: COc1cc2c(cc1OC)CN(/C=N/c1ccc3c(c1)C(OC(C)=O)CCCC3)CC2 (configuration not stated) , 5-hydroxytryptamine receptor 7 (Homo sapiens, UniProt P34969), reported pKi = 6.30

Summary line: COc1cc2c(cc1O)-c1c(O)c(OC)cc3c1C(C2)N(C)CC3 (configuration not stated) , 5-hydroxytryptamine receptor 7 (Homo sapiens, UniProt P34969), reported pKi = 7.10

Summary line: COc1ccc2[nH]c3c(c2c1)CCNC3Cc1ccc2c(c1)OCO2 (configuration not stated) , 5-hydroxytryptamine receptor 7 (Homo sapiens, UniProt P34969), reported pKi = 7.44

Summary line: CC(=O)OC1CCc2ccc(/N=C/N(C)Cc3ccccc3)cc21 (configuration not stated) , 5-hydroxytryptamine receptor 7 (Homo sapiens, UniProt P34969), reported pKi = 7.00

====

For each entry below, report its Ki value.
Biological target: D(2) dopamine receptor (Homo sapiens, UniProt P14416)
Assay: Displacement of [3H]spiperone from dopamine D2 receptor
Record the value in µM, omitting the unit from your answer.

GET /value?item= CN(/C=N/c1ccc2c(c1)C(O)CC2)Cc1ccccc1 (stereo unspecified) &field=Ki returns 59

GET /value?item= COc1cc2c(cc1OC)CN(/C=N/c1ccc3c(c1)N(C(=O)OC(C)(C)C)CC3)CC2 &field=Ki returns 54

GET /value?item= c1ccc2c3c([nH]c2c1)C(Cc1ccc2c(c1)OCO2)NCC3 (stereo unspecified) &field=Ki returns 4.6

GET /value?item= CC(=O)OC1CCCc2ccc(/N=C/N3CCc4ccccc4C3)cc21 (stereo unspecified) &field=Ki returns 2.4

GET /value?item= CCCOC1CCCc2ccc(/N=C/N3CCc4cc(OC)c(OC)cc4C3)cc21 (stereo unspecified) &field=Ki returns 42

====

Target: D(2) dopamine receptor (Homo sapiens, UniProt P14416)
Experiment: Displacement of [3H]spiperone from dopamine D2 receptor
For each entry below, report its pKi value.
# pKi: negative log10 of molar concentration; output just the value

Summary line: Oc1cccc(C2NCCc3c2[nH]c2ccccc32)c1 (stereo unspecified) , D(2) dopamine receptor (Homo sapiens, UniProt P14416), reported pKi = 4.06

Summary line: COc1ccc2[nH]c3c(c2c1)CCN=C3c1cc([N+](=O)[O-])cn1C , D(2) dopamine receptor (Homo sapiens, UniProt P14416), reported pKi = 3.70

Summary line: COc1cc2c(cc1OC)CN(/C=N/c1ccc3c(c1)C(OC(C)=O)CCC3)CC2 (stereo unspecified) , D(2) dopamine receptor (Homo sapiens, UniProt P14416), reported pKi = 4.96

Summary line: CC(=O)OC1CCc2ccc(/N=C/N3CCc4ccccc4C3)cc21 (stereo unspecified) , D(2) dopamine receptor (Homo sapiens, UniProt P14416), reported pKi = 5.77

Summary line: COc1cc2c(cc1OC)CN(/C=N/c1ccc3c(c1)C(O)CCCC3)CC2 (stereo unspecified) , D(2) dopamine receptor (Homo sapiens, UniProt P14416), reported pKi = 5.77

Summary line: COc1cccc(CC2NCCc3c2[nH]c2ccccc32)c1 (stereo unspecified) , D(2) dopamine receptor (Homo sapiens, UniProt P14416), reported pKi = 5.80

Reference source for all entries: ChEMBL document CHEMBL1139165
